System: human liver cancer-derived cell line Hep3B
Experimental protocol: in vitro erythropoietin (EPO) induction activity in Hep3B cells, EPO ELISA of culture supernatant
Format: cell-based
Conditions: test compound 12.5 μM, 24 hours at 37° C., multiple against EPO concentration in control (0.5% DMSO)
Experimental: The in vitro erythropoietin (EPO) induction activity of test compounds was evaluated using human liver cancer-derived cell line Hep3B (ATCC, Manassas, Va.). […] After recovering the culture supernatant, EPO concentration in the culture supernatant was quantified using a human EPO ELISA kit (StemCell Technologies). […] The EPO concentration of each Example was expressed as a multiple against the EPO concentration in the control.
For each entry below, report its fold induction at 12.5 µM value.
Give bare numbers.

// solved cases for fold induction at 12.5 µM follow
>>> print(df.to_string())
                              sample_smiles                               target_desc  recorded_measurement
0  Cc1nc(CC2CCN(c3ccc(-c4cccnc4)cc3)CC2)nc(C(=O)NCC(=O)O)c1O  human liver cancer-derived cell line Hep3B                   100
1  Cc1nc(CC2=CCN(c3ccc(C(C)(C)C)cc3)CC2)nc(C(=O)NCC(=O)O)c1O  human liver cancer-derived cell line Hep3B                   225
2  Cc1nc(CC2CCN(c3ccc(-c4ccccc4)cc3)CC2)nc(C(=O)NCC(=O)O)c1O  human liver cancer-derived cell line Hep3B                   262
3  Cc1nc(C[C@H]2OC[C@H](c3ccc(-c4ccccc4)cc3)CO2)nc(C(=O)NCC(=O)O)c1O  human liver cancer-derived cell line Hep3B                   108
4  Cc1nc(CC2CCN(c3ccc(-c4nccs4)cc3)CC2)nc(C(=O)NCC(=O)O)c1O  human liver cancer-derived cell line Hep3B                   142
5  Cc1nc(CC2CCN(c3ccc(C(C)(C)C)cc3)CC2)nc(C(=O)NCC(=O)O)c1O  human liver cancer-derived cell line Hep3B                    98
6  Cc1nc(Cc2ccc(-c3ccc(C(C)(C)C)cc3)nc2)nc(C(=O)NCC(=O)O)c1O  human liver cancer-derived cell line Hep3B                   184
7  CSc1nc(CC2CCN(c3ccc(C(C)(C)C)cc3)CC2)nc(C(=O)NCC(=O)O)c1O  human liver cancer-derived cell line Hep3B                   147
8  Cc1nc(CC2CCN(c3ccc(F)cc3)CC2)nc(C(=O)NCC(=O)O)c1O  human liver cancer-derived cell line Hep3B                    29
9  Cc1nc(CC2CCN(c3ccc(-c4ccccn4)cc3)CC2)nc(C(=O)NCC(=O)O)c1O  human liver cancer-derived cell line Hep3B                   104

For each listed entry, give its fold induction at 12.5 µM.
1. Cc1nc(CC2CCN(c3ccccc3)CC2)nc(C(=O)NCC(=O)O)c1O
2. Cc1nc(Cc2cnc(-c3ccc(C(C)(C)C)cc3)nc2)nc(C(=O)NCC(=O)O)c1O
3. Cc1nc(CC2CCN(c3ccc(C(F)(F)F)cc3)CC2)nc(C(=O)NCC(=O)O)c1O
4. Cc1nc(CC2CCN(c3ccc(Cc4ccccc4)cc3)CC2)nc(C(=O)NCC(=O)O)c1O

-- reply
1. 37
2. 155
3. 127
4. 158

This collection of values is drawn from patent US20110112103A1.
